# TARGET: IDH1 R132C (Homo sapiens, UniProt O75874, R132C)
# Sequence (O75874 whole entry R132C): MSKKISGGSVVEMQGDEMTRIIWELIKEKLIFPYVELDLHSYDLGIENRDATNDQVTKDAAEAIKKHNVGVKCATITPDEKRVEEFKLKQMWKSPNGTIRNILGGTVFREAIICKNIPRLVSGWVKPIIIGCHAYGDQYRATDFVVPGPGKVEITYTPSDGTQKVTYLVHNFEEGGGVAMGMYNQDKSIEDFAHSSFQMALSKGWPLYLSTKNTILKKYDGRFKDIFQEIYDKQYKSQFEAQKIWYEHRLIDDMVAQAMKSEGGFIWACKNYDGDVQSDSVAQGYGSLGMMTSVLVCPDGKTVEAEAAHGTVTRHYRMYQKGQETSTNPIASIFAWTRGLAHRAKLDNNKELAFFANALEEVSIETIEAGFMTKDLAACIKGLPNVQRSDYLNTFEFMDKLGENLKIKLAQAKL
# EXPERIMENT DESCRIPTION: IDH1 R132C enzymatic assay (NADPH depletion coupled to diaphorase/resazurin)
# Assay type: biochemical
# MEASUREMENT SETUP: IDH1 R132C enzymatic inhibition, IC50 class
pIC50: −log10 of the molar value.
PROPERTY NAME: pIC50

Example entries and their recorded answers appear below.
>>> print(df.to_string())
                              sample_smiles  observed_value
0  CCc1cccc(CC)c1-n1c(C)c(C(=O)NCC(N)=O)cc(-c2nc(-c3ccc(Cl)cc3)cs2)c1=O    5.30 to 6.00
1  COc1cccc(C)c1-n1c2c(cc(-c3nc(-c4ccc(Cl)cc4)cs3)c1=O)C(=O)CCC2    5.30 to 6.00

Lookup: Given the compound `CCc1cccc(CC)c1-n1c2c(cc(-c3nc(-c4ccc(F)cc4)cs3)c1=O)C(=O)CC(C)(C)C2` , what is its reported pIC50?
Found: 6.00 to 6.52

----------
# TARGET: IDH1 R132C (Homo sapiens, UniProt O75874, R132C)
# EXPERIMENT DESCRIPTION: IDH1 R132C enzymatic assay (NADPH depletion coupled to diaphorase/resazurin)
# Type: biochemical
# MEASUREMENT SETUP: IDH1 R132C enzymatic inhibition, IC50 class
pIC50: −log10 of the molar value.
PROPERTY NAME: pIC50

Example entries and their recorded answers appear below.
In [3]: df
Out[3]:
                                   compound                                    target  property_name  observed_value
0  CCc1cccc(CC)c1-n1c(CC(C)C)c(C(=O)N2CCNCC2)cc(-c2cccc(-c3ccc(Cl)cc3)n2)c1=O  IDH1 R132C (Homo sapiens, UniProt O75874, R132C)          pIC50    5.30 to 6.00
1  Cc1cccc(O)c1-n1c2c(cc(-c3nc(-c4ccc(Cl)cc4)cs3)c1=O)C(=O)CC(C)(C)C2  IDH1 R132C (Homo sapiens, UniProt O75874, R132C)          pIC50    5.30 to 6.00
2  CCc1cccc(CC)c1-n1c(CC(C)C)c(C(=O)N2CCNC(=O)C2c2ccccc2)cc(-c2nc(-c3ccc(Cl)cc3)cs2)c1=O (centres unmarked)  IDH1 R132C (Homo sapiens, UniProt O75874, R132C)          pIC50          > 6.52

Lookup: Given the compound `CCc1cccc(CC)c1-n1c(C)c(C(=O)NC2CC2)cc(-c2nc(-c3ccc(Cl)cc3)cs2)c1=O` , what is its reported pIC50?
Found: 5.30 to 6.00

----------
Parameter: IC50. Scope: all listed entries.
# TARGET: IDH1 R132H (Homo sapiens, UniProt O75874, R132H)
# Sequence (O75874 whole entry R132H): as the sequence (O75874 whole entry R132C) above, with C132H counted along it
# EXPERIMENT DESCRIPTION: IDH1 R132H enzymatic assay (NADPH depletion coupled to diaphorase/resazurin)
# Format: biochemical
# MEASUREMENT SETUP: enzymatic inhibition, IDH1 R132H

Example entries and their recorded answers appear below.
>>> df
                                   molecule  observed_value
0  CCc1cccc(CC)c1-n1c(CC(C)C)c(C(=O)N2CCNC3(CCC3)C2)cc(-c2nc(-c3ccc(Cl)cc3)cs2)c1=O [Compound 465]        < 300 nM
1  CCc1cccc(CC)c1-n1c(C=C(C)C)c(C(=O)N2CCNCC2CC(=O)O)cc(-c2nc(-c3ccc(Cl)cc3)cs2)c1=O (centres unmarked) [Compound 599]        < 300 nM
2  CCc1cccc(CC)c1-n1c(C=C(C)C)c(C(=O)N2CCNC(=O)C2)cc(-c2ccn(-c3ccc(Cl)cc3)n2)c1=O [Compound 593]        < 300 nM
3  CCc1cccc(CC)c1-n1c(C=C(C)C)c(C(=O)N2CC3(CNC3)C2)cc(-c2nc(-c3ccc(Cl)cc3)cs2)c1=O [Compound 512]        < 300 nM

Continue with the next molecule.
Lookup: For IDH1 R132H (Homo sapiens, UniProt O75874, R132H), provide IC50 of CN1CCN(Cc2cccc(-n3c4c(cc(-c5nc(-c6ccc(Cl)cc6)cs5)c3=O)C(=O)CCC4)c2)CC1 [Compound 570] please.
Found: > 20000 nM

----------
# TARGET: IDH1 R132H (Homo sapiens, UniProt O75874, R132H)
# EXPERIMENT DESCRIPTION: IDH1 R132H enzymatic assay (NADPH depletion coupled to diaphorase/resazurin)
# Assay type: biochemical
# MEASUREMENT SETUP: IDH1 R132H enzymatic inhibition, IC50 class
Parameter: IC50. Scope: all listed entries.

In [3]: df
Out[3]:
                                   compound  property_name   observed_value
0  CCc1cccc(CC)c1-n1c(COCCOC)c(C(=O)N2CCNCC2)cc(-c2nc(-c3ccc(Cl)cc3)cs2)c1=O           IC50         < 300 nM
1  CC1(C)CC(=O)c2cc(-c3nc(-c4ccc(Cl)cc4)cs3)c(=O)n(-c3ccccc3C(F)(F)F)c2C1           IC50   300 to 1000 nM
2  CCc1cccc(CC)c1-n1c(C)c(C(=O)N2CCCC(O)C2)cc(-c2nc(-c3ccc(Cl)cc3)cs2)c1=O (stereo not drawn)           IC50  1000 to 5000 nM
3  CC1(C)CC(=O)c2cc(-c3nc(-c4ccc(Cl)cc4)cs3)c(=O)n(-c3ccccc3OC3CC3)c2C1           IC50  1000 to 5000 nM
4  COc1ccc(C(F)(F)F)cc1-n1c(C=C(C)C)c(C(=O)N2CCNCC2)cc(-c2nc(-c3ccc(Cl)cc3)cs2)c1=O           IC50   300 to 1000 nM
5  CCc1cccc(CC)c1-n1c(C)c(C(=O)NCCCO)cc(-c2nc(-c3ccc(Cl)cc3)cs2)c1=O           IC50  1000 to 5000 nM
6  CCc1cccc(CC)c1-n1c(C=C(C)C)c(C(=O)N2CCNC3(CC3)C2)cc(-c2nc(-c3ccc(C(F)(F)F)cc3)cs2)c1=O           IC50         < 300 nM
7  CN1CCN(c2ccc(C(F)(F)F)c(-n3c4c(cc(-c5nc(-c6ccc(Cl)cc6)cs5)c3=O)C(=O)CC(C)(C)C4)c2)CC1           IC50  1000 to 5000 nM
8  COc1ccc(OC)c(-n2c(C=C(C)C)c(C(=O)N3CCNCC3)cc(-c3nc(-c4ccc(Cl)cc4)cs3)c2=O)c1           IC50         < 300 nM
9  CCc1cccc(CC)c1-n1c(CC(C)C)c(C(=O)NC(C)CO)cc(-c2nc(-c3ccc(Cl)cc3)cs2)c1=O (stereo not drawn)           IC50   300 to 1000 nM

Lookup: Given the compound `COc1ccc(OC)c(-n2c3c(cc(-c4cccc(-c5ccc(Cl)cc5)n4)c2=O)C(=O)CC(C)(C)C3)c1` , what is its reported IC50?
Found: 5000 to 20000 nM

Lookup: Now the same for CCc1cccc(CC)c1-n1c(CC(C)C)c(C(=O)N2CCNC(=O)C2c2ccccc2)cc(-c2nc(-c3ccc(Cl)cc3)cs2)c1=O (stereo not drawn)
Found: 300 to 1000 nM

----------
# TARGET: IDH1 R132C (Homo sapiens, UniProt O75874, R132C)
# EXPERIMENT DESCRIPTION: IDH1 R132C enzymatic assay (NADPH depletion coupled to diaphorase/resazurin)
# Type: biochemical
# MEASUREMENT SETUP: IDH1 R132C enzymatic inhibition, IC50 class
PROPERTY NAME: IC50

Example entries and their recorded answers appear below.
In [3]: df
Out[3]:
                                   compound    observed_value
0  CCc1cccc(CC)c1-n1c(C)c(C(=O)N2CCN[C@H](CO)C2)cc(-c2nc(-c3ccc(Cl)cc3)cs2)c1=O [Compound 16]    300 to 1000 nM
1  CCc1cccc(CC)c1-n1c(CC(C)C)c(C(=O)N2CCNC(C(F)(F)F)C2)cc(-c2nc(-c3ccc(Cl)cc3)cs2)c1=O (stereo not drawn) [Compound 314]    300 to 1000 nM
2  CC1(C)CC(=O)c2cc(-c3nc(-c4ccc(Cl)cc4)cs3)c(=O)n(-c3cn[nH]c3)c2C1 [Compound 177]  5000 to 20000 nM

Lookup: Given the compound CCc1cccc(CC)c1-n1c(CC(C)C)c(C(=O)N2CCNCC2)cc(-c2nc(-c3ccc(C(F)(F)F)cc3)c(C)s2)c1=O [Compound 210] , what is its reported IC50?
Found: < 300 nM

Lookup: Now the same for CCc1cccc(CC)c1-n1c(CC(C)C)c(C(=O)N2CCNC(C(=O)OC)C2)cc(-c2nc(-c3ccc(Cl)cc3)cs2)c1=O (stereo not drawn) [Compound 117]
Found: < 300 nM

Lookup: Now the same for CCc1cccc(CC)c1-n1c2c(cc(-c3nc(-c4ccc(Cl)cc4)cs3)c1=O)C(=O)CC(C)(C)C2 [Compound 282]
Found: < 300 nM

Lookup: Now the same for CCc1cccc(CC)c1-n1c(CC(C)C)c(C(=O)N2CCNCC2)cc(-c2nc(-c3ccc(C(C)(C)C)cc3)c(C)s2)c1=O [Compound 160]
Found: 1000 to 5000 nM

Lookup: Now the same for COc1ccc(OC)c(-n2c3c(cc(C(=O)NCc4ccc(Cl)cc4)c2=O)C(=O)CC(C)(C)C3)c1 [Compound 93]
Found: 5000 to 20000 nM

Lookup: Now the same for COc1ccc(F)cc1-n1c2c(cc(-c3nc(-c4ccc(Cl)cc4)cs3)c1=O)C(=O)CCC2 [Compound 318]
Found: 1000 to 5000 nM

Lookup: Now the same for CCc1cccc(CC)c1-n1c(CC(C)C)c(C(=O)N2CCNC(C)(C(=O)O)C2)cc(-c2nc(-c3ccc(Cl)cc3)cs2)c1=O (stereo not drawn) [Compound 80]
Found: < 300 nM

Lookup: Now the same for O=C1CCCc2c1cc(-c1nc(-c3ccc(Cl)cc3)cs1)c(=O)n2-c1ccc(CO)cc1 [Compound 649]
Found: > 20000 nM

Lookup: Now the same for CCc1cccc(CC)c1-n1c(C)c(C(=O)N[C@@H]2CCCC[C@@H]2N)cc(-c2nc(-c3ccc(Cl)cc3)cs2)c1=O [Compound 214]
Found: 300 to 1000 nM

Lookup: Now the same for COc1ccc(F)cc1-n1c2c(cc(-c3nc(-c4ccc(Cl)cc4)cs3)c1=O)C(=O)CC(C)(C)C2 [Compound 669]
Found: 300 to 1000 nM

Lookup: Now the same for CCc1cccc(CC)c1-n1c2c(cc(-c3nc(C4=CCN(C(=O)OC(C)(C)C)CC4)c(C)s3)c1=O)C(=O)CC(C)(C)C2 [Compound 197]
Found: 5000 to 20000 nM

Lookup: Now the same for COc1cccc(CN2CCN(C)CC2)c1-n1c2c(cc(-c3nc(-c4ccc(Cl)cc4)cs3)c1=O)C(=O)CC(C)(C)C2 [Compound 319]
Found: 5000 to 20000 nM

Lookup: Now the same for COc1ccc(OC)c(-n2c(=O)c(-c3nc(-c4ccc(Cl)cc4)cs3)cc3c(O)cccc32)c1 [Compound 68]
Found: > 20000 nM

Lookup: Now the same for CC1(C)CC(=O)c2cc(-c3nc(-c4ccc(Cl)cc4)cs3)c(=O)n(-c3ccccc3N3CCOCC3)c2C1 [Compound 248]
Found: 300 to 1000 nM

Lookup: Now the same for Cc1ccc(CO)cc1-n1c2c(cc(-c3nc(-c4ccc(Cl)cc4)cs3)c1=O)C(=O)CCC2 [Compound 651]
Found: 1000 to 5000 nM

Lookup: Now the same for CCc1cccc(CC)c1-n1c(CC(C)C)c(C(=O)N2CCNCC2c2ccccc2)cc(-c2nc(-c3ccc(Cl)cc3)cs2)c1=O (stereo not drawn) [Compound 145]
Found: < 300 nM

Lookup: Now the same for CC1(C)CC(=O)c2cc(-c3nc(-c4ccc(Cl)cc4)cs3)c(=O)n(-c3ccccn3)c2C1 [Compound 121]
Found: 5000 to 20000 nM

Lookup: Now the same for O=C1CCCc2c1cc(-c1nc(-c3ccc(Cl)cc3)cs1)c(=O)n2-c1ccccc1OCC(F)(F)F [Compound 343]
Found: 1000 to 5000 nM
